Please respond with reported EC50 for every item in the list.
Tested on: RSV Long strain
Test: Viral cytopathic effect (CPE) assay, anti-RSV activity
Type: cell-based, Respiratory Syncytial Virus
Conditions: human respiratory syncytial virus, 144 h, RSV Long strain (ATCC); cell viability after 6 days, Cell Counting kit-8
Field: numeric (µM). Do not append units.

Exercise: EC50 for NCCNc1cc(N2CCCc3ccccc3C2)nc2ccc(Br)cc12 [Example 118-10] ?
Key: 0.289

Exercise: EC50 for NCCNc1cc(N2CC[S+]([O-])c3ccccc3C2)nc2ccc(Cl)cc12 (stereo not shown) [Example 18-7] ?
Key: 0.023

Exercise: EC50 for COc1ccc2nc(N3CCS(=O)(=O)c4ccccc4C3)cc(NCCCN)c2c1 [Example 17-4] ?
Key: 0.071

Exercise: EC50 for Cc1ccc2nc(N3CCS(=O)(=O)c4ccccc4C3)cc(NC(=O)N(C)C)c2c1 [Example 3-63] ?
Key: 9.9

###

System: RSV Long strain
Assay: Viral cytopathic effect (CPE) assay, anti-RSV activity
Assay type: cell-based, Respiratory Syncytial Virus
Conditions: human respiratory syncytial virus, 144 h, RSV Long strain (ATCC); cell viability after 6 days, Cell Counting kit-8
Protocol: Viral cytopathic effect (CPE) assay: To measure anti-RSV activity of compounds, 96-well plates are seeded with 6×10^3 cells per well in Dulbecco's modified Eagle's medium (DMEM) containing 10% fetal bovine serum (FBS). […] The viability of cells is assessed after 6 days using Cell Counting kit-8 (Dojindo Molecular Technologies). […]
Structures can show the parent of a compound that is named as a salt.
Please respond with reported EC50 for every item in the list.
Answer format: number, then unit.

Exercise: EC50 for NC1=NCC(CNc2cc(N3CCCc4ccccc4C3)nc3ccccc23)O1 (centres unmarked) [Example 126-1, trifluoroacetate] ?
Key: 0.79 µM

Exercise: EC50 for Cc1ccc2nc(N3CC[S+]([O-])c4ccccc4C3)cc(NCCO)c2c1 (centres unmarked) ?
Key: 0.619 µM

Exercise: EC50 for Cc1ccc2nc(N3CCS(=O)(=O)c4ccccc4C3)cc(NC[C@H]3COC(N)=N3)c2c1 ?
Key: 0.064 µM

Exercise: EC50 for CC(C)(N)CNc1cc(N2CCS(=O)(=O)c3ccccc3C2)nc2ccccc12 ?
Key: 0.326 µM

Exercise: EC50 for COC(=O)c1ccc2nc(N3CCS(=O)(=O)c4ccccc4C3)cc(NCC3(CN)COC3)c2c1 ?
Key: 0.89 µM

Exercise: EC50 for Cc1ccc2nc(N3CCS(=O)(=O)c4ccccc4C3)cc(NC3CCOCC3)c2c1 ?
Key: 1.39 µM

Exercise: EC50 for Cc1ccc2nc(N3CCC(=O)c4ccccc4C3)nc(NCC3(N)COC3)c2c1 ?
Key: 0.007 µM

Exercise: EC50 for NC1(CNc2nc(N3CCSc4ccccc4C3)nc3ccc(Cl)cc23)COC1 ?
Key: 0.239 µM

###

Tested on: RSV Long strain
Assay: Viral cytopathic effect (CPE) assay, anti-RSV activity
Assay type: cell-based, Respiratory Syncytial Virus
Conditions: human respiratory syncytial virus, 144 h, RSV Long strain (ATCC); cell viability after 6 days, Cell Counting kit-8
Where a name gives a salt, the structure may show the parent alone.
Please respond with reported log10 of EC50 for every item in the list.
Use the decimal logarithm of EC50 (µM).

Exercise: log10 of EC50 for Cc1ccc2nc(N3CCS(=O)(=O)c4ccccc4C3C)cc(NCC3(N)COC3)c2c1 (stereo not shown) ?
Key: -1.26

Exercise: log10 of EC50 for COc1ccc2c(c1)CN(c1cc(NCC3(CNC(C)=O)COC3)c3cc(C)ccc3n1)CCS2(=O)=O ?
Key: -1.24

Exercise: log10 of EC50 for Clc1ccc2nc(N3CCCc4ccccc4C3)ccc2c1 ?
Key: 0.84

Exercise: log10 of EC50 for Cc1ccc2nc(N3CCS(=O)(=O)c4ccccc4C3)cc(NCC3(N)CCCCC3)c2c1 ?
Key: -2.10

Exercise: log10 of EC50 for Cc1ccc2nc(N3CCS(=O)(=O)c4ccccc4C3)cc(C(=O)C3CCNCC3)c2c1 ?
Key: 0.96

Exercise: log10 of EC50 for NCCNc1cc(N2CCCc3ccc(O)cc3C2)nc2ccccc12 ?
Key: -1.32

Exercise: log10 of EC50 for Cc1ccc2nc(N3CCS(=O)(=O)c4ccccc4C3)cc(NC(CO)CO)c2c1 ?
Key: -1.16

Exercise: log10 of EC50 for Cc1cc2c(NCC3(N)COC3)cc(N3CCS(=O)(=O)c4ccccc4C3)nc2cc1F ?
Key: -1.68

Exercise: log10 of EC50 for Cc1ccc2nc(N3CCS(=O)(=O)c4ccccc4C3)cc(N3C(=O)NCC34COC4)c2c1 ?
Key: 0.35

Exercise: log10 of EC50 for CNCCNc1cc(N2CCC(F)(F)c3ccccc3C2)nc2ccc(C)cc12 ?
Key: -0.79

Exercise: log10 of EC50 for COc1ccc2c(c1)S(=O)(=O)CCN(c1cc(N)c3cc(C)ccc3n1)C2 ?
Key: -1.14

Exercise: log10 of EC50 for CC(=O)NCC1(CNc2cc(N3CCS(=O)(=O)c4ccccc4C3)nc3ccc(C)cc23)COC1 ?
Key: 0.31

Exercise: log10 of EC50 for Cc1ccc2nc(N3CCS(=O)(=O)c4ccccc4C3)cc(N3C[C@@H]4OC(N)=N[C@@H]4C3)c2c1 (relative stereo) ?
Key: 0.82

Exercise: log10 of EC50 for Cc1ccc2nc(N3CCS(=O)(=O)c4ccc(O)cc4C3)cc(NCC3(N)COC3)c2c1 ?
Key: -2.70

Exercise: log10 of EC50 for NCCNc1cc(N2Cc3ccc(Br)cc3CCC2=O)nc2ccccc12 ?
Key: 0.79

Exercise: log10 of EC50 for NCCNc1cc(N2CCS(=O)(=O)c3ccccc3C2)nc2ccc(F)cc12 ?
Key: -0.80

Exercise: log10 of EC50 for Cc1cccc2nc(N3CCS(=O)(=O)c4ccccc4C3)cc(NCCCN)c12 ?
Key: -1.07

Exercise: log10 of EC50 for NCCCNc1cc(N2CCS(=O)(=O)c3ccccc3C2)nc2ccc(OCCO)cc12 ?
Key: -0.50

Exercise: log10 of EC50 for Cc1ccc2nc(N3CCS(=O)(=O)c4ccccc4C3)cc(NC3CCCC(N)C3)c2c1 (stereo not shown) ?
Key: -1.12

Exercise: log10 of EC50 for Cc1ccc2nc(N3CCS(=O)(=O)c4ccccc4C3)cc(NCC(O)CO)c2c1 (stereo not shown) ?
Key: -1.72

Exercise: log10 of EC50 for N[C@@H]1CN(c2cc(N3CCS(=O)(=O)c4ccccc4C3)nc3ccc(Cl)cc23)C[C@H]1F (relative stereo) ?
Key: 0.49

Exercise: log10 of EC50 for NCCNc1cc(N2CCCc3ccccc3C2)nc2ccc(Cl)cc12 ?
Key: -0.75

Exercise: log10 of EC50 for N#Cc1ccc2nc(N3CCS(=O)(=O)c4ccccc4C3)cc(NCCCN)c2c1 ?
Key: -0.38

Exercise: log10 of EC50 for COCCNCCNc1cc(N2CCS(=O)(=O)c3ccccc3C2)nc2ccc(C)cc12 ?
Key: -1.92

Exercise: log10 of EC50 for NC1(CNc2cc(N3CCS(=O)(=O)c4ccccc4C3)nc3ccc(Cl)cc23)COC1 ?
Key: -1.49

Exercise: log10 of EC50 for NCCNc1cc(N2CCCc3ccc(F)cc3C2)nc2ccccc12 ?
Key: -0.78

Exercise: log10 of EC50 for Cc1ccc2nc(N3CCS(=O)(=O)c4ccccc4C3)cc(NC(=O)CO)c2c1 ?
Key: -0.72

Exercise: log10 of EC50 for COc1ccc2c(c1)CCCN(c1cc(NCCN)c3ccccc3n1)C2 ?
Key: -0.20

Exercise: log10 of EC50 for N=C(N)NCCNc1cc(N2CCCc3ccccc3C2)nc2ccccc12 [Example 125, trifluoroacetate] ?
Key: 0.40

Exercise: log10 of EC50 for Cc1ccc2nc(N3CCS(=O)(=O)c4ccccc4C3)cc(NCC3(CN)CSC3)c2c1 ?
Key: -1.60

Exercise: log10 of EC50 for CNc1cc(N2CCS(=O)(=O)c3ccccc3C2)nc2ccc(C)cc12 [Example 3-33, trifluoroacetate] ?
Key: -0.37

Exercise: log10 of EC50 for Cc1ccc2nc(N3CCC(F)(F)c4ccccc4C3)cc(NCCO)c2c1 ?
Key: 0.21

Exercise: log10 of EC50 for NCC(=O)Nc1cc(N2CCCc3ccccc3C2)nc2ccccc12 ?
Key: 0.80

Exercise: log10 of EC50 for Cc1ccc2nc(N3CCS(=O)(=O)c4ccccc4C3)cc(N3C[C@H](O)CC3=O)c2c1 ?
Key: 0.90
